These data points were gathered from patent US20060063782A1.

# tested on: UniProt:Q16539
# Sequence (Q16539 whole entry): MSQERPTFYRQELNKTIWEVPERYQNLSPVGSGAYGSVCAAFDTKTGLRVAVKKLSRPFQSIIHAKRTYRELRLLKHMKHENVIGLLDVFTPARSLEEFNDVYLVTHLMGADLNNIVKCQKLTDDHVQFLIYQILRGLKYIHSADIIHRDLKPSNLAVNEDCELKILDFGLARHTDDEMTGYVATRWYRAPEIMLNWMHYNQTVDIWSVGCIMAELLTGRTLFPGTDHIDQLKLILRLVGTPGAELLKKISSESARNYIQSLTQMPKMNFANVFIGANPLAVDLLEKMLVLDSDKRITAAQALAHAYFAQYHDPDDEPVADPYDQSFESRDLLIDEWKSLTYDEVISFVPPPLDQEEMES
# assay summary: p38 MAP Kinase Assay (33P incorporation into myelin basic protein, filter plate)
# Format: biochemical
# condition details: Table 2; MKK6-activated p38, MBP substrate, 50 minutes
pIC50: −log10 of the molar value.

[
  {
    "compound": "Nc1nccnc1OCc1c(Cl)cccc1Cl",
    "pIC50": "> 3.00"
  },
  {
    "compound": "CC(C)(C)n1nc(-c2ccccc2)cc1NC(=O)Nc1ccc(F)c(COc2cnccn2)c1",
    "pIC50": "> 4.70"
  },
  {
    "compound": "COc1cc(C(=O)Nc2ccc(F)c(COc3cnccn3)c2)nc(Cl)n1",
    "pIC50": "> 3.00"
  },
  {
    "compound": "O=C(Nc1ccc(F)c(COc2cnccn2)c1)Nc1cc(-c2ccc(Cl)cc2)nn1-c1ccc(F)cc1",
    "pIC50": "> 5.70"
  },
  {
    "compound": "O=C(Nc1ccc(Cl)c(COc2cnccn2)c1)c1ccccc1",
    "pIC50": "> 4.70"
  },
  {
    "compound": "CC(C)(C)C(=O)Nc1cnc(OCc2c(Cl)cccc2Cl)cn1",
    "pIC50": "> 3.70"
  },
  {
    "compound": "O=C(CN1CCOCC1)Nc1cnc(OCc2c(Cl)cccc2Cl)cn1",
    "pIC50": "> 3.70"
  },
  {
    "compound": "CC(C)(C)c1cc(NC(=O)Nc2ccc(F)c(COc3cnccn3)c2)n(Cc2ccccc2)n1",
    "pIC50": "> 5.70"
  },
  {
    "compound": "Cc1cc(-n2nc(C(C)(C)C)cc2NC(=O)Nc2ccc(F)c(COc3cnccn3)c2)nc(C)n1",
    "pIC50": "> 5.70"
  },
  {
    "compound": "CC(C)c1nnc(NC(=O)Nc2ccc(F)c(COc3cnccn3)c2)s1",
    "pIC50": "> 4.70"
  },
  {
    "compound": "OCCNc1cnc(OCc2c(Cl)cccc2Cl)cn1",
    "pIC50": "> 3.70"
  },
  {
    "compound": "O=C(Nc1ccc(F)c(COc2cnccn2)c1)Nc1nnc(C2CCCO2)s1 (stereo not drawn) [Compound 140]",
    "pIC50": "> 5.70"
  },
  {
    "compound": "CC(C)(C)c1cc(NC(=O)Nc2ccc(F)c(COc3cnccn3)c2)n(-c2ccc(F)cc2F)n1",
    "pIC50": "> 5.70"
  },
  {
    "compound": "O=C(Nc1ccc(F)c(COc2cnccn2)c1)c1cc(N2CCOCC2)nc(N2CCOCC2)n1",
    "pIC50": "> 5.70"
  },
  {
    "compound": "CC1(C(=O)Nc2cnc(OCc3c(Cl)cccc3Cl)cn2)CC1",
    "pIC50": "> 3.70"
  },
  {
    "compound": "CCN(CC)C(=O)Nc1cnc(OCc2c(Cl)cccc2Cl)cn1",
    "pIC50": "> 3.70"
  },
  {
    "compound": "CSc1nnc(NC(=O)Nc2ccc(F)c(COc3cnccn3)c2)s1",
    "pIC50": "> 3.70"
  },
  {
    "compound": "CC(C)(C)c1cc(C(=O)Nc2ccc(F)c(COc3cnccn3)c2)cc(C(C)(C)C)c1",
    "pIC50": "> 5.70"
  }
]
